Target: T1, hIL-18BP-hFc (human, UniProt O95998 31-194, limits assumed)
T1 sequence (looked up): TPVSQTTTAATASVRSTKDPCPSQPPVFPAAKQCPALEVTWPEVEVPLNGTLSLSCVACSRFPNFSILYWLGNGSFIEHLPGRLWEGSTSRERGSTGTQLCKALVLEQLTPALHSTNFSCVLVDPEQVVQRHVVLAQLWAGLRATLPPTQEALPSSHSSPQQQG
Assay: cell-based or functional assay
Assay Readout: EC50 (nM) in the Presence of 1 µg/mL hIL-18BP-hFc, hIL-18 reporter assay
Just the number please, in nM, no unit attached.

Query :: Sample IL-18 variant polypeptide M35 (ligand) YFPKLRSKLSVIRNLNDQVLFIDQGNRPLFEDMTDSDCRDNAPRTIFIISMYKGSGARGMAVTISVKCEKISTLSCENKIISFKEMNPPDGIKDTKSDIIFFQRSVPGHDNKMQFESSSYEGYFLACEKERDLFKLILKKEDELGDRSIMFTVQNED — what was its EC50 (nM) in the Presence of 1 µg/mL hIL-18BP-hFc, hIL-18 reporter assay?
Result :: 0.51

Query :: Sample IL-18 variant polypeptide M6 (ligand) YFPKLRSKLSVIRNLNDQVLFIDQGNRPLFEDMTDSDCRDNAPRTIFIISMYKWSTPRGMAVTISVKCEKISTLSCENKIISFKEMNPPDVIKDTKSDIIFFQTSVPGHDNKMQFESSSYEGYFLACEKERDLFKLILKKEDELGDRSIMFTVQNED — what was its EC50 (nM) in the Presence of 1 µg/mL hIL-18BP-hFc, hIL-18 reporter assay?
Result :: 0.14

Query :: Sample IL-18 variant polypeptide M13 (ligand) YFPKLKSKLSVIRNLNDQVLFIDQGNRPLFEDMTDSDCRDNAPRTIFIISMYKQSIWRGMAVTISVKCEKISTLSCENKIISFKEMNPPDNIKDTKSDIIFFQRSVPGHDNKMQFESSSYEGYFLACEKERDLFKLILKKEDELGDRSIMFTVQNED — what was its EC50 (nM) in the Presence of 1 µg/mL hIL-18BP-hFc, hIL-18 reporter assay?
Result :: 0.026
